Parameter Ratio: see the listing below.
Biological target: UniProtKB Q9NR82
Sequence (Q9NR82 whole entry): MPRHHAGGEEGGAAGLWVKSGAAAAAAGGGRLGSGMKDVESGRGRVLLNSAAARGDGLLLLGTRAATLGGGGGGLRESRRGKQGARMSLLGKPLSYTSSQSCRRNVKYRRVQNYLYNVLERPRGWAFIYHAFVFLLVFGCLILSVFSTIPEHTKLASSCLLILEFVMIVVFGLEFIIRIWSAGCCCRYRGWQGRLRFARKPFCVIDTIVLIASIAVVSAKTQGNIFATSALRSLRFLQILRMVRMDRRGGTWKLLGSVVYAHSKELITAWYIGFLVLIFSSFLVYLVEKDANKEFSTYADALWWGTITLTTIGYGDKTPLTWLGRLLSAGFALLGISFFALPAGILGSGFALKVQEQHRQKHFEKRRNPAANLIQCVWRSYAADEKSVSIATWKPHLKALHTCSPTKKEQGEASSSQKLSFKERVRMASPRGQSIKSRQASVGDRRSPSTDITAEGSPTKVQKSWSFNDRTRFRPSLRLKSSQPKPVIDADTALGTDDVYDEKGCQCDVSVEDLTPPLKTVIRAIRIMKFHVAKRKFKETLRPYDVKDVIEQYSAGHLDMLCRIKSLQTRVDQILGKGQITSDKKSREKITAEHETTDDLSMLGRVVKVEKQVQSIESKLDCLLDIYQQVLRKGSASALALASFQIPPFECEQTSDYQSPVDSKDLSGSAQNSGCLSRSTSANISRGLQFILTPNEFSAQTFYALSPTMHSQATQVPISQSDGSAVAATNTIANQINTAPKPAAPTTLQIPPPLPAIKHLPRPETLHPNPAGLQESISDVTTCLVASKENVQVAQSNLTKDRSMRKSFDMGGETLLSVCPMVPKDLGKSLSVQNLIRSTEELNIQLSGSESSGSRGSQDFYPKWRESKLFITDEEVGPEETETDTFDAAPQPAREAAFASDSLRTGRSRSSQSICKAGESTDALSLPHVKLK
Experiment: Activity at human KCNQ5 expressed in CHOK1 cells assessed as ratio of amplitude of outward current in presence of test compound to amplitude of outward current in absence of test compound at 10 uM at -10 mV by whole cell patch clamp assay
Type: cell-based
Response field accepts a number only; no unit should be typed.

Some entries whose results are on file:
> print(dat)
                           structure.string   measured.target  result.value
1  C#CCN(Cc1ccc(F)cc1)c1ccc(NC(=O)OCC)c(NC(=O)OC(C)(C)C)c1  UniProtKB Q9NR82          4.58
2  C#CCN(Cc1ccc(F)cc1)c1ccc(NC(=O)OCc2ccccc2)c(NC(=O)OCc2ccccc2)c1  UniProtKB Q9NR82          3.57
3  C#CCN(Cc1ccc(F)cc1)c1ccc(NC(=O)OCC)c(NC(=O)OCC(C)C)c1  UniProtKB Q9NR82          4.84
4  C#CCN(Cc1ccc(F)cc1)c1ccc(NC(=O)OCCC)c(NC(=O)OCCC)c1  UniProtKB Q9NR82          2.75
5  C#CCN(Cc1ccc(F)cc1)c1ccc(NC(=O)OCC=C)c(NC(=O)OCC=C)c1  UniProtKB Q9NR82          5.26
6  C#CCN(Cc1ccc(F)cc1)c1ccc(NC(=O)OCC)c(NC(=O)OC)c1  UniProtKB Q9NR82          3.34

Prompt line: Looking for the measured Ratio of C#CCN(Cc1ccc(F)cc1)c1ccc(NC(=O)OCC(C)C)c(NC(=O)OCC(C)C)c1 , can you help?
Response line: 1.73

Prompt line: Repeat with C/C=C(\C)CN(Cc1ccc(F)cc1)c1ccc(NC(=O)OCC)c(NC(=O)OCC)c1
Response line: 1.28

Prompt line: Repeat with C#CCN(Cc1ccc(F)cc1)c1ccc(NC(=O)OC)c(NC(=O)OC)c1
Response line: 2.89

Prompt line: Repeat with C#CCN(Cc1ccc(F)cc1)c1ccc(NC(=O)OCC)c(NC(=O)OCC=C)c1
Response line: 4.67

Prompt line: Repeat with C#CCN(Cc1ccc(F)cc1)c1ccc(NC(=O)OCC)c(NC(=O)OC(C)C)c1
Response line: 5.71

Prompt line: Repeat with C#CCN(Cc1ccc(F)cc1)c1ccc(NC(=O)OCC)c(NC(=O)OCCCC)c1
Response line: 3.62

Prompt line: Repeat with C#CCN(Cc1ccc(F)cc1)c1ccc(NC(=O)OC2CC2)c(NC(=O)OC2CC2)c1
Response line: 2.55

Prompt line: Repeat with CCOC(=O)Nc1ccc(N(CC=C(C)C)Cc2ccc(F)cc2)cc1NC(=O)OCC
Response line: 1.37

Prompt line: Repeat with C#CCN(Cc1ccc(F)cc1)c1ccc(NC(=O)Oc2ccccc2)c(NC(=O)Oc2ccccc2)c1
Response line: 1.16

Prompt line: Repeat with C=CCN(Cc1ccc(F)cc1)c1ccc(NC(=O)OCC)c(NC(=O)OCC)c1
Response line: 1.49

Prompt line: Repeat with C#CCN(Cc1ccc(F)cc1)c1ccc(NC(=O)OC2CCC2)c(NC(=O)OC2CCC2)c1
Response line: 1.33

Prompt line: Repeat with C/C=C/CN(Cc1ccc(F)cc1)c1ccc(NC(=O)OCC)c(NC(=O)OCC)c1
Response line: 1.36

Prompt line: Repeat with C#CCN(Cc1ccc(F)cc1)c1ccc(NC(=O)OCC)c(NC(=O)OCCC)c1
Response line: 5.81

Prompt line: Repeat with CCOC(=O)Nc1ccc(N(CC#Cc2ccccc2)Cc2ccc(F)cc2)cc1NC(=O)OCC
Response line: 1.13
